# literature pull: Platelet-derived growth factor receptor beta (Homo sapiens) IC50

[
  {
    "MOLECULE": "COC(=O)CN(CCCNC(=O)c1cc2nccc(Oc3ccc(NC(=O)Nc4cc(C)ccc4F)c(F)c3)c2s1)CC(=O)OC",
    "STUDY_SYSTEM": "Platelet-derived growth factor receptor beta (Homo sapiens)",
    "VALUE": "0.012 µM"
  },
  {
    "MOLECULE": "Cn1cc(-c2cc(Oc3cccc(NC(=O)c4ccc5occc5c4)c3)ccn2)cn1",
    "STUDY_SYSTEM": "Platelet-derived growth factor receptor beta (Homo sapiens)",
    "VALUE": "> 10 µM"
  },
  {
    "MOLECULE": "CCn1cc2ncc(N[C@@H](C)c3cc(NC(=O)c4ccc(CN5CCOCC5)c(C(F)(F)F)c4)ccc3F)nc2n1",
    "STUDY_SYSTEM": "Platelet-derived growth factor receptor beta (Homo sapiens)",
    "VALUE": "< 0.3 µM"
  },
  {
    "MOLECULE": "Cc1cncc(C(=O)Nc2cccc([C@H](C)Nc3cnc4[nH]nc(C)c4c3)c2)c1",
    "STUDY_SYSTEM": "Platelet-derived growth factor receptor beta (Homo sapiens)",
    "VALUE": "< 0.3 µM"
  },
  {
    "MOLECULE": "CCn1cc2ncc(N[C@@H](C)c3cccc(NC(=O)c4ccc(CN5CCCC5)c(C(F)(F)F)c4)c3)nc2n1",
    "STUDY_SYSTEM": "Platelet-derived growth factor receptor beta (Homo sapiens)",
    "VALUE": "< 0.3 µM"
  }
]

Moving on to another molecule below.
The value of IC50 recorded for O=C(Nc1ccc(Oc2ccnc(-c3cn[nH]c3)c2)cn1)N1CCC2(CCC(F)(F)CC2)C1=O when tested on Platelet-derived growth factor receptor beta (Homo sapiens) reads 7.45 µM

###

# literature pull: Platelet-derived growth factor receptor beta (Homo sapiens) IC50
Labelling field: enter y if recorded IC50 is less than 70 nM. Enter n if it equals or exceeds that cut-off.

Consider the worked cases shown below.
[
  {
    "MOLECULE_SMILES": "Cc1ccc(C(=O)N[C@H]2CCCC[C@@H]2O)cc1/C=C(\\F)c1cncc(CN2CCOCC2)c1",
    "STUDY_SYSTEM": "Platelet-derived growth factor receptor beta (Homo sapiens)",
    "GROUP": "y"
  },
  {
    "MOLECULE_SMILES": "Cc1ccc(C(=O)N[C@H]2CCCC[C@@H]2O)cc1NCc1cnc2cccnn12",
    "STUDY_SYSTEM": "Platelet-derived growth factor receptor beta (Homo sapiens)",
    "GROUP": "n"
  }
]

Quick check: IC50 of CCn1cc2ncc(N[C@@H](C)c3cccc(NC(=O)Nc4cnn(CC5CC5)c4)c3)nc2n1 under 70 nM?
n

Quick check: IC50 of Cc1cncc(C#Cc2cc(C(=O)N[C@H]3CCCC[C@@H]3O)ccc2C)c1 under 70 nM?
n

Quick check: IC50 of Cc1ccc(C(=O)N[C@H]2CCCC[C@@H]2O)cc1NCc1cncc(-c2ccccc2)n1 under 70 nM?
n

Quick check: IC50 of COC(=O)CCCCS(=O)(CCCCC(=O)OC)=NC(=O)c1cnc(N)c(C#Cc2cccc(NC(=O)c3cc(C)ccc3F)c2)c1 under 70 nM?
y

Quick check: IC50 of Cc1ccc(NC(=O)Nc2ccc(C#Cc3ccc4nccn4n3)cc2)cc1 under 70 nM?
y

Quick check: IC50 of CCn1cc2ncc(N[C@@H](C)c3cc(NC(=O)Cc4ccc(C5CC5)nc4)ccc3F)nc2n1 under 70 nM?
n

Quick check: IC50 of Cc1cncc(C(=O)Nc2cccc([C@H](C)Nc3cnc4ccn(C)c4c3)c2)c1 under 70 nM?
n

Quick check: IC50 of Cn1cc(-c2cc(Oc3cccc(NC(=O)c4ccc(Cl)c(C(F)(F)F)c4)c3)ccn2)cn1 under 70 nM?
n

Quick check: IC50 of Cc1cc[nH]c(=O)c1N1CCc2nc(N)ncc2C1 under 70 nM?
n

###

# literature pull: UniProt:P09619 IC50

As a guide, the following entries are already answered.
[
  {
    "COMPOUND": "Cn1cc(-c2nccc(Oc3ccc(NC(=O)Nc4cccc(C(F)(F)F)c4)cc3)n2)cn1",
    "STUDY_SYSTEM": "UniProt:P09619",
    "METRIC_NAME": "IC50",
    "VALUE": "≤ 10000 nM"
  },
  {
    "COMPOUND": "Cc1ccc(C(=O)N[C@H]2CCCC[C@@H]2O)cc1C(=O)Nc1cncc(-c2ccccc2)c1",
    "STUDY_SYSTEM": "UniProt:P09619",
    "METRIC_NAME": "IC50",
    "VALUE": "38 nM"
  },
  {
    "COMPOUND": "CCn1cc2ncc(N[C@@H](C)c3cccc(NC(=O)c4cnc(N(C)C)s4)c3)nc2n1",
    "STUDY_SYSTEM": "UniProt:P09619",
    "METRIC_NAME": "IC50",
    "VALUE": "< 300 nM"
  },
  {
    "COMPOUND": "CS(=O)(=O)Nc1cccc(-c2cn(C3CC(CN)C3)c3ncnc(N)c23)c1 (centres unmarked)",
    "STUDY_SYSTEM": "UniProt:P09619",
    "METRIC_NAME": "IC50",
    "VALUE": "5800 nM"
  },
  {
    "COMPOUND": "CCn1cc2ncc(N[C@@H](C)c3cccc(NC(=O)Cc4ccc(F)c(F)c4)c3)nc2n1",
    "STUDY_SYSTEM": "UniProt:P09619",
    "METRIC_NAME": "IC50",
    "VALUE": "< 300 nM"
  },
  {
    "COMPOUND": "CCn1cc2ncc(N[C@@H](C)c3cc(NC(=O)Cc4ccc(C5CC5)cn4)ccc3C)nc2n1",
    "STUDY_SYSTEM": "UniProt:P09619",
    "METRIC_NAME": "IC50",
    "VALUE": "≥ 1000 nM"
  },
  {
    "COMPOUND": "COc1ccc(-c2cncc(C(=O)Nc3cc(C(=O)N[C@H]4CCCC[C@@H]4O)ccc3C)c2)cc1",
    "STUDY_SYSTEM": "UniProt:P09619",
    "METRIC_NAME": "IC50",
    "VALUE": "39 nM"
  }
]

Moving on to another compound below.
The value of IC50 recorded for CCn1cc2ncc(N[C@@H](C)c3cccc(NC(=O)Cc4cc(Cl)ccn4)c3)nc2n1 when tested on UniProt:P09619 reads ≥ 1000 nM

###

# literature pull: Platelet-derived growth factor receptor beta (Homo sapiens, UniProt P09619) pIC50
pIC50: −log10 of the molar value.

[
  {
    "MOLECULE_SMILES": "CC(C)c1cc(C(=O)Nc2cccc([C@H](C)Nc3cnc4cnn(C)c4n3)c2)n(C)n1",
    "METRIC_NAME": "pIC50",
    "VALUE": "> 6.52"
  },
  {
    "MOLECULE_SMILES": "CCn1cc2ncc(N[C@@H](C)c3cc(NC(=O)Cc4ccc(Cl)cn4)ccc3C)nc2n1",
    "METRIC_NAME": "pIC50",
    "VALUE": "> 6.52"
  },
  {
    "MOLECULE_SMILES": "CCn1cc2ncc(N[C@@H](C)c3cc(NC(=O)c4cnc(C(F)(F)F)s4)ccc3F)nc2n1",
    "METRIC_NAME": "pIC50",
    "VALUE": "> 6.52"
  }
]

The value of pIC50 recorded for CCn1cc2ncc(N[C@@H](C)c3cccc(NC(=O)Cc4ccccc4F)c3)nc2n1 when tested on Platelet-derived growth factor receptor beta (Homo sapiens, UniProt P09619) reads 6.00 to 6.52

The value of pIC50 recorded for O=C(Nc1cccc(Oc2cc(-c3ccnc4ccnn34)ncn2)c1)Nc1ccc(Cl)c(C(F)(F)F)c1 when tested on Platelet-derived growth factor receptor beta (Homo sapiens, UniProt P09619) reads ≥ 5.00

The value of pIC50 recorded for COC(=O)CCCCS(=O)(CCCCC(=O)OC)=NC(=O)c1cnc(N)c(C#Cc2cccc(C(=O)Nc3cccc(OC)c3)c2)c1 when tested on Platelet-derived growth factor receptor beta (Homo sapiens, UniProt P09619) reads 7.42

The value of pIC50 recorded for C[C@H](Nc1cnc2cnn(C)c2n1)c1cccc(NC(=O)c2ccc(S(C)(=O)=O)nc2)c1 when tested on Platelet-derived growth factor receptor beta (Homo sapiens, UniProt P09619) reads > 6.52

###

# literature pull: Platelet-derived growth factor receptor beta (Homo sapiens) IC50

As a guide, the following entries are already answered.
[
  {
    "MOLECULE_SMILES": "C[C@H](Nc1cnc2cnn(C)c2n1)c1cccc(NC(=O)c2ccc3c(c2)OCCO3)c1",
    "METRIC_NAME": "IC50",
    "VALUE": "< 300 nM"
  },
  {
    "MOLECULE_SMILES": "Cn1cc(-c2nccc(Nc3ccc(NC(=O)Nc4ccc(Cl)c(C(F)(F)F)c4)cc3)n2)cn1",
    "METRIC_NAME": "IC50",
    "VALUE": "≤ 10000 nM"
  }
]

The value of IC50 recorded for Cn1cc(-c2cc(Oc3cccc(NC(=O)c4cccc(-c5ccccc5)c4)c3)ccn2)cn1 when tested on Platelet-derived growth factor receptor beta (Homo sapiens) reads > 10000 nM

The value of IC50 recorded for Cc1cc(C(=O)Nc2cccc([C@H](C)Nc3cnc4cnn(C)c4n3)c2)cnc1F when tested on Platelet-derived growth factor receptor beta (Homo sapiens) reads < 300 nM

The value of IC50 recorded for O=C(N[C@H]1CCCC[C@@H]1O)c1ccc(F)c(/C=C(\F)c2cncc(-c3ncccn3)c2)c1 when tested on Platelet-derived growth factor receptor beta (Homo sapiens) reads 26 nM

The value of IC50 recorded for COc1ccccc1-c1ccc2c(c1)NC(=O)/C2=C\c1[nH]c(C)c(C(=O)NCCN2CCCC2)c1-c1ccccc1 when tested on Platelet-derived growth factor receptor beta (Homo sapiens) reads 8380 nM

The value of IC50 recorded for Cc1cncc(C(=O)Nc2cccc([C@H](C)Nc3cnc4[nH]cc(-c5cncnc5)c4n3)c2)c1 when tested on Platelet-derived growth factor receptor beta (Homo sapiens) reads < 300 nM

The value of IC50 recorded for CCn1cc2ncc(N[C@@H](C)c3cccc(NC(=O)c4ccc(C(=O)N5CC[C@@H](N)C5)c(C)c4)c3)nc2n1 when tested on Platelet-derived growth factor receptor beta (Homo sapiens) reads ≥ 1000 nM

The value of IC50 recorded for CCOc1cncc(C(=O)Nc2cc(C(=O)N[C@H]3CCCC[C@@H]3O)ccc2C)c1 when tested on Platelet-derived growth factor receptor beta (Homo sapiens) reads 61 nM

The value of IC50 recorded for Cn1cc(-c2cc(Oc3cccc(NC(=O)c4ccc5[nH]ccc5c4)c3)ccn2)cn1 when tested on Platelet-derived growth factor receptor beta (Homo sapiens) reads > 10000 nM

The value of IC50 recorded for Cc1cc(C(=O)Nc2cccc([C@H](C)Nc3cnc4cnn(C)c4n3)c2)cnc1CN1CCSCC1 when tested on Platelet-derived growth factor receptor beta (Homo sapiens) reads < 300 nM
